Measured values drawn from paper PMC5587766 for this set.

Molecular target: T1, His6-tagged A. thaliana PEX5 PTS1-binding domain (residues 340-728), wild type (Arabidopsis thaliana, UniProt Q9FMA3 340-728)
T1 construct: Written 'His6-AtPEX5 (340-728)', in pET-28b; also called AtPEX5C; wild-type AtPEX5C; source: E. coli BL21-Gold (DE3), purified (Co-NTA)
T1 sequence (looked up): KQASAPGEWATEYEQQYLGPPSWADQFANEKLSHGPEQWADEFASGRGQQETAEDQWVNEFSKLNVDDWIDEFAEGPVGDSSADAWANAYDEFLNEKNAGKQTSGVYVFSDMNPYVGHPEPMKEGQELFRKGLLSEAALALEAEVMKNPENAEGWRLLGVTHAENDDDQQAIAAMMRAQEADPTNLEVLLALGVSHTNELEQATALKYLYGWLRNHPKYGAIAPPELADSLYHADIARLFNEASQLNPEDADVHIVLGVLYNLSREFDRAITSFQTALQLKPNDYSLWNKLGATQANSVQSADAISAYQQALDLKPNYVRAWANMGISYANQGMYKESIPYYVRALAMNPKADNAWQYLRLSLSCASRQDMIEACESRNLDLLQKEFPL
Assay: fluorescence polarisation; fluorescence anisotropy; AtPEX5C or variant serially diluted (from a 40 µM solution) against 100 nM lissamine-labelled peptide tracer; 20 mM HEPES, 150 mM NaCl, pH 7.5; gelatine-blocked 384-well plates; 25 °C, 20 min; fitted to a 1:1 binding model
Conditions: both partners purified
Where no end group is shown, it is not given here.
property.label: pKd
When answering, recall that pKd equals minus log10 of the concentration in mol/L, and write that number alone.

binder {lissamine rhodamine B sulfonyl}-YQSKL (model PTS1 pentapeptide; also called lissamine-labelled YQSKL; model PTS1 peptide; source: synthetic peptide (Fmoc solid-phase synthesis, reverse phase HPLC)) [lissamine-YQSKL] , pKd observed: 8.96
